Reported log10 Ki against UniProt P03951, gathered from multiple publications, appears below.
Short version: log10 scale, Ki, nM.

Field: example entries. Status: answers known.
[
  {
    "Compound": "O=C1CCC=CCC(C(=O)NCCc2cc(Cl)ccc2-n2cnnn2)NC(=O)c2ccccc2N1 (racemic)",
    "log10 Ki": 1.59
  },
  {
    "Compound": "COC(=O)Nc1ccc2c(c1)NC(=O)CCCC[C@H](NC(=O)c1cccc3ccccc13)c1nc-2c[nH]1",
    "log10 Ki": 2.55
  },
  {
    "Compound": "COC(=O)Nc1ccc2c(c1)NCCCCC[C@H](NC(=O)/C=C/c1cc(C)ccc1-n1cnnn1)c1nc-2c(C#N)[nH]1",
    "log10 Ki": 0.95
  },
  {
    "Compound": "COC(=O)c1ccc(CS(=O)(=O)N[C@H](Cc2cccc(C(=N)N)c2)C(=O)NCC(=O)NCc2ccc(C(=N)N)cc2)cc1",
    "log10 Ki": 2.85
  }
]

Req: Form entry - test system: UniProt P03951; read-out: log10 Ki; compound: C[C@@H]1CCC[C@H](N2CCC(c3cc(Cl)ccc3-n3cc(Cl)nn3)=CC2=O)c2cc(ccn2)-c2c(cnn2CC(=O)O)NC1=O
Resp: -0.72

Req: Form entry - test system: UniProt P03951; read-out: log10 Ki; compound: COC(=O)Nc1ccc2c(c1)NC(=O)C(C)CCC[C@H](NC(=O)c1c(F)cc3c(ncn3C)c1F)c1nc-2c(Cl)[nH]1 (stereo partly shown)
Resp: 0.82

Req: Form entry - test system: UniProt P03951; read-out: log10 Ki; compound: O=C(O)c1ccc(NC(=O)[C@H](Cc2ccccc2)n2ncc(-c3cc(Cl)ccc3-n3cc(C(F)(F)F)nn3)cc2=O)cc1
Resp: 0.74

###

Reported Ki against Coagulation factor XI (Homo sapiens), gathered from multiple publications, appears below.

Field: example entries. Status: answers known.
[
  {
    "Compound": "N=C(N)N1CCC(NC(=O)C2C/C=C/CCC(=O)Nc3ccccc3C(=O)N2)CC1 (racemic)",
    "Ki": "811 nM"
  },
  {
    "Compound": "COC(=O)Nc1ccc(-c2cc([C@H](CC3CCCN(C(=O)C(C)C)C3)NC(=O)/C=C/c3cc(Cl)ccc3-n3cnnn3)nnc2Cl)cc1 (single isomer, unassigned)",
    "Ki": "55 nM"
  },
  {
    "Compound": "NS(=O)(=O)c1ccc(CNC(=O)[C@H](Cc2ccccc2)n2cnc(-c3cc(Cl)ccc3-n3cc(Cl)nn3)cc2=O)cc1",
    "Ki": "1270 nM"
  },
  {
    "Compound": "COC(=O)NCC[C@@H]1Nc2cccc(c2)[C@@H](n2cnc(-c3cc(Cl)ccc3-n3cc(Cl)nn3)cc2=O)CCCCCNC1=O",
    "Ki": "515 nM"
  }
]

Req: Please report the recorded Ki for COCCOC(=O)Nc1ccc2c(c1)N[C@@H](C(=O)OC)CCCC[C@H](NC(=O)/C=C/c1cc(Cl)ccc1-n1cnnn1)c1nc-2c(C#N)[nH]1 .
Resp: < 5 nM

Req: Please report the recorded Ki for COC(=O)Nc1ccc2c(c1)NCCCCC[C@H](NC(=O)/C=C/c1cc(Cl)ccc1-n1cnnn1)c1nc-2c(C(=O)N(C)C)[nH]1 .
Resp: 19 nM

###

Reported Ki against Coagulation factor XI (Homo sapiens, UniProt P03951), gathered from multiple publications, appears below.
Could you give me the number in nM? Just the number is fine.

[
  {
    "Compound": "COC(=O)Nc1ccc(-c2c[nH]c(=O)c(CNC(=O)/C=C/c3cc(Cl)ccc3-n3cnnn3)c2)cc1",
    "Quantity Name": "Ki",
    "Unit Spec": "nM",
    "Reported Measurement": 277
  },
  {
    "Compound": "COC(=O)c1cc(NC(=O)[C@H](Cc2ccccc2)n2cnc(-c3cc(Cl)ccc3-n3cc(Cl)nn3)cc2=O)cn1C",
    "Quantity Name": "Ki",
    "Unit Spec": "nM",
    "Reported Measurement": 172
  }
]

Req: Form entry - test system: Coagulation factor XI (Homo sapiens, UniProt P03951); read-out: Ki; compound: Nc1ccc2c(c1)NC(=O)CCCCC(c1ccc(-c3c(F)ccc(Cl)c3F)c[n+]1[O-])c1cccc-2c1 (single isomer, unassigned)
Resp: 1.7

Req: Form entry - test system: Coagulation factor XI (Homo sapiens, UniProt P03951); read-out: Ki; compound: O=C(C1CCCCC(c2ccc(-c3cc(Cl)ccc3-n3cnnn3)c[n+]2[O-])c2cccc(c2)-c2cc(F)ccc2N1)N1CCCC1 (single isomer, unassigned)
Resp: 0.24

Req: Form entry - test system: Coagulation factor XI (Homo sapiens, UniProt P03951); read-out: Ki; compound: O=C(Nc1ccc2c(=O)[nH]ccc2c1)[C@H](Cc1ccccc1)n1cnc(-c2cc(Cl)ccc2-n2cc(Cl)nn2)cc1=O
Resp: 19.8

Req: Form entry - test system: Coagulation factor XI (Homo sapiens, UniProt P03951); read-out: Ki; compound: COC(=O)c1ccc(CS(=O)(=O)N[C@H](COC(C)(C)C)C(=O)NCC(=O)NCc2ccc(C(=N)N)cc2)cc1
Resp: 1600

Req: Form entry - test system: Coagulation factor XI (Homo sapiens, UniProt P03951); read-out: Ki; compound: CCOC(=O)Cn1ccc(NC(=O)[C@H](Cc2ccccc2)n2cnc(-c3cc(Cl)ccc3-n3cc(Cl)nn3)cc2=O)n1
Resp: 1660

###

Reported Ki against UniProt P03951, gathered from multiple publications, appears below.
Could you give me the number in nM? Just the number is fine.

[
  {
    "Compound": "COc1ccc(CNC(=O)[C@H](Cc2ccccc2)n2cnc(-c3cc(Cl)ccc3-n3cc(Cl)nn3)cc2=O)cc1",
    "Ki / nM": 1220
  },
  {
    "Compound": "COC(=O)Nc1ccc2c(c1)NC(=O)CCCCC(C(=O)N1CC[C@@]3(C1)OC(=O)Nc1ccc(Cl)cc13)c1cc(F)cc-2c1 (stereo partly shown)",
    "Ki / nM": 45.2
  },
  {
    "Compound": "C[C@@H]1CCC[C@H](N2CCC(c3cc(Cl)ccc3-n3ccnn3)=CC2=O)c2cc(ccn2)-c2c(cnn2CCO)NC1=O (stereo in doubt)",
    "Ki / nM": 5.5
  }
]

Req: Please report the recorded Ki for COCCNC(=O)[C@H](Cc1ccccc1)n1cnc(-c2cc(Cl)ccc2-n2cc(Cl)nn2)cc1=O .
Resp: 1730

###

Reported Ki against Coagulation factor XI (Homo sapiens, UniProt P03951), gathered from multiple publications, appears below.
Could you give me the number in nM? Just the number is fine.

Field: example entries. Status: answers known.
[
  {
    "Molecule": "C[C@@H]1CCC[C@H](N2CCC(c3cc(Cl)ccc3-n3cc(C(F)(F)F)nn3)=CC2=O)C(=O)NCc2ccccc2NC1=O",
    "Subject Of Test": "Coagulation factor XI (Homo sapiens, UniProt P03951)",
    "Ki / nM": 3.1
  },
  {
    "Molecule": "N=C(N)c1ccc(CNC(=O)CNC(=O)[C@@H](CO)NS(=O)(=O)Cc2ccc(C(=O)O)cc2)cc1",
    "Subject Of Test": "Coagulation factor XI (Homo sapiens, UniProt P03951)",
    "Ki / nM": 600
  }
]

Req: Form entry - test system: Coagulation factor XI (Homo sapiens, UniProt P03951); read-out: Ki; molecule: COC(=O)Nc1ccc2c(c1)NC(=O)CCCCC(c1ccc(-c3cc(Cl)ccc3-n3cnnn3)c[n+]1[O-])c1cc-2[n+]([O-])cc1F (single isomer, unassigned)
Resp: 0.14

###

Reported pKi against Coagulation factor XI (Homo sapiens), gathered from multiple publications, appears below.
When answering, recall that pKi equals minus log10 of the concentration in mol/L, and write that number alone.

Field: example entries. Status: answers known.
[
  {
    "Molecule": "Nc1ccc(-c2cc(C(Cc3ccccc3)NC(=O)/C=C/c3cc(Cl)ccc3-n3cnnn3)c(Cl)nn2)cn1 (racemic)",
    "pKi": 7.70
  },
  {
    "Molecule": "N=C(N)c1ccc(CNC(=O)[C@H](CO)NC(=O)[C@@H](CO)NS(=O)(=O)Cc2ccc(C(=O)O)cc2)cc1",
    "pKi": 6.77
  },
  {
    "Molecule": "O=C(Nc1ccc2c(c1)CS(=O)(=O)C2)[C@H](Cc1ccccc1)n1cnc(-c2cc(Cl)ccc2-n2cc(Cl)nn2)cc1=O",
    "pKi": 7.10
  },
  {
    "Molecule": "C[C@@H]1CCC[C@H](n2cnc(-c3c(-c4cnn(C(F)F)c4)ccc(Cl)c3F)cc2=O)c2cc(ccn2)-c2c(cnn2C)NC1=O",
    "pKi": 8.35
  },
  {
    "Molecule": "CC(C)(C)OC(=O)N1CCN2c3cccc(c3)[C@@H](n3cnc(-c4cc(Cl)ccc4-n4cc(Cl)nn4)cc3=O)CCCCCNC(=O)[C@H]2C1",
    "pKi": 7.68
  },
  {
    "Molecule": "CCOC(=O)Nc1ccc(NC(=O)C(Cc2ccccc2)n2ccc(-c3cc(Cl)ccc3[N+](=O)[O-])cc2=O)cc1 (stereo not shown)",
    "pKi": 6.40
  },
  {
    "Molecule": "[2H]C([2H])([2H])n1ncc2c1-c1ccnc(c1)[C@@H](N1CCC(c3c(C(F)(F)F)ccc(Cl)c3F)=CC1=O)CCC[C@@H](C)C(=O)N2",
    "pKi": 8.55
  },
  {
    "Molecule": "O=C(Nc1noc2c(Cl)cccc12)[C@H](Cc1ccccc1)n1cnc(-c2cc(Cl)ccc2-n2cc(Cl)nn2)cc1=O",
    "pKi": 6.52
  },
  {
    "Molecule": "COC(=O)Nc1ccc2c(c1)NS(=O)(=O)CC=CC[C@H](NC(=O)/C=C/c1cc(Cl)ccc1-n1cnnn1)c1nc-2c[nH]1 (stereo in doubt)",
    "pKi": 7.02
  },
  {
    "Molecule": "COC(=O)Nc1ccc2c(c1)NC(=O)CCCCCC(C(=O)NC1Cc3ccccc3NC1=O)NC2=O (racemic)",
    "pKi": 6.15
  }
]

# next molecule below
Req: Please report the recorded pKi for COC(=O)Nc1ccc2c(c1)NC(=O)CCCC[C@H](c1ccc(-c3c(C(F)(F)F)ccc(Cl)c3F)c[n+]1[O-])c1nc-2c(C)[nH]1 (single isomer, unassigned) .
Resp: 9.38
